target_system: Voltage-dependent N-type calcium channel subunit alpha-1B (Rattus norvegicus); note: assay procedure not described here
Sequence (Q02294 whole entry): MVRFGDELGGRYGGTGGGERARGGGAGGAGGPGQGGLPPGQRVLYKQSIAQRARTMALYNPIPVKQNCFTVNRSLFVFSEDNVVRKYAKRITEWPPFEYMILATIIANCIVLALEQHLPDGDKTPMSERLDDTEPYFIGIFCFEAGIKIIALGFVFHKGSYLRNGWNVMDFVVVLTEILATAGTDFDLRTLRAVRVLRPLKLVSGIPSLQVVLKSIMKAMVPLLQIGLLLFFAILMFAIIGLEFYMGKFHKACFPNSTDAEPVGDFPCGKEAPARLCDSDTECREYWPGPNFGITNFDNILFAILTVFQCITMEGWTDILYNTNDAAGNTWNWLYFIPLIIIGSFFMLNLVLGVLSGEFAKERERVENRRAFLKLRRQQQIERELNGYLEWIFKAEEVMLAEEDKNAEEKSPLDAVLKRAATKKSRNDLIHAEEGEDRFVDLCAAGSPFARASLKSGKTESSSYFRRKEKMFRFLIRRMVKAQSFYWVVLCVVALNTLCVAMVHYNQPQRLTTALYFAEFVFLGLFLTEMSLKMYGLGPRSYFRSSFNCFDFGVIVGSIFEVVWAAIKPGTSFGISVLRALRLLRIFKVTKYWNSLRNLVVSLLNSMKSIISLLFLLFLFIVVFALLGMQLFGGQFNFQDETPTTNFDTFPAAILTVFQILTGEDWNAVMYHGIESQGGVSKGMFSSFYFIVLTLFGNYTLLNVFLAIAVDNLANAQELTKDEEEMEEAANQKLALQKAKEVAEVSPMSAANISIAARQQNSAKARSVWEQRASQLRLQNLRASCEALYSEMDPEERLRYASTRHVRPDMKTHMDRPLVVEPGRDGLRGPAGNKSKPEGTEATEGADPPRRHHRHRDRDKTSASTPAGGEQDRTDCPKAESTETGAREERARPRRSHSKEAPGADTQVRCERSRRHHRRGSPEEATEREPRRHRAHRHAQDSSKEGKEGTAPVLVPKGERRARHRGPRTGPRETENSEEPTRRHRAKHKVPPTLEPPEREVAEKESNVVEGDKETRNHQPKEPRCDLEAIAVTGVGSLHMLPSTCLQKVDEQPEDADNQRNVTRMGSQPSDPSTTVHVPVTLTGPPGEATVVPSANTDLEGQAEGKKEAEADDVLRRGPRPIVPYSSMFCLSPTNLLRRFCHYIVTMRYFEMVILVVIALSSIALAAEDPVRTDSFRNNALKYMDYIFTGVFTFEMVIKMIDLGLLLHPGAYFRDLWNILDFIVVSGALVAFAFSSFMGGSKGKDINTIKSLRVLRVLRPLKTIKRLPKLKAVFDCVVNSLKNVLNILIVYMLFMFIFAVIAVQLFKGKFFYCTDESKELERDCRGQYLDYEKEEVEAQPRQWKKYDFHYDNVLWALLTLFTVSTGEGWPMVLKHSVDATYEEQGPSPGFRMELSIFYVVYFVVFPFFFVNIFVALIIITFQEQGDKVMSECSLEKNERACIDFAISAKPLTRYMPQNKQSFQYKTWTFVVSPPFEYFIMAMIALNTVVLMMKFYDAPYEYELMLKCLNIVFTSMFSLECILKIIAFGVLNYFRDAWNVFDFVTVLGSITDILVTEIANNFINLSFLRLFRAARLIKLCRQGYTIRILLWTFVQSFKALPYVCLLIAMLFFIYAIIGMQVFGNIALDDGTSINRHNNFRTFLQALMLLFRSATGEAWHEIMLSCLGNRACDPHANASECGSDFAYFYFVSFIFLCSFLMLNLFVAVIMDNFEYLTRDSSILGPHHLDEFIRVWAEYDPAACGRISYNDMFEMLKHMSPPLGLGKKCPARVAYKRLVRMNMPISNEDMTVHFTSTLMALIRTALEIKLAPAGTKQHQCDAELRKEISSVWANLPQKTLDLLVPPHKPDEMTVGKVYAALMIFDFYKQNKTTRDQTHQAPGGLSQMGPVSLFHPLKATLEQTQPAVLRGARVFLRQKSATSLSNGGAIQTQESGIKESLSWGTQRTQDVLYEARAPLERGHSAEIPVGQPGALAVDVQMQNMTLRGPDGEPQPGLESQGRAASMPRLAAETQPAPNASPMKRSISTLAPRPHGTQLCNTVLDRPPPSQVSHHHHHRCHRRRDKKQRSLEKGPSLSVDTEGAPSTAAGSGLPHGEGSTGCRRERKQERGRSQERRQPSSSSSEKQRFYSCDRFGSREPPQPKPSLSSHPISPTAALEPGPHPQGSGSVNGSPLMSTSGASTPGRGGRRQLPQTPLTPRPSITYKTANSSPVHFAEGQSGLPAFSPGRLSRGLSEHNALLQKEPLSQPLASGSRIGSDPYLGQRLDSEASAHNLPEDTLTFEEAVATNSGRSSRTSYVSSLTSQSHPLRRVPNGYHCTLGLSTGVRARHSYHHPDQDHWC
Assay type: functional
Below: a set of entries, each annotated with reported AC50.

Answered examples (8):
COc1cc(Nc2c(C#N)cnc3cc(OCCCN4CCN(C)CC4)c(OC)cc23)c(Cl)cc1Cl: > 10 µM
COC(=O)C1=C(C)NC(C)=C(C(=O)OC)C1c1ccccc1[N+](=O)[O-]: > 10 µM
Nc1nc(N)c2nc(-c3ccccc3)c(N)nc2n1: > 10 µM
O=P(O)(O)C(O)(Cc1cccnc1)P(=O)(O)O: > 10 µM
CCCCCN(C)CCC(O)(P(=O)(O)O)P(=O)(O)O: > 10 µM
NC(=O)c1cnccn1 [PYRAZINAMIDE]: > 10 µM
NS(=O)(=O)c1cc2c(cc1Cl)NCNS2(=O)=O [HYDROCHLOROTHIAZIDE]: > 10 µM
Oc1ncnc2[nH]ncc12: > 10 µM

Now turn to the next molecule.
In: Quick one: AC50 of CN1CCN(C(=O)OC2c3nccnc3C(=O)N2c2ccc(Cl)cn2)CC1 (stereo not given) ?
Out: > 10 µM
